Test: HCT116 colon cancer cell growth inhibition, primary screen, CellTiter-Glo luminescence, NPC library (AID 1117342)
Conditions: at 20 µM (top of the series)
The source made the active and inactive calls.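 Rule for the calls: active = compounds that lower survival of HCT116 colon cancer cells in the luminescence readout, no numeric limit stated; inactive = the rest.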
Parameter call: string, one of 1.0 for active, 0.0 for inactive

The examples below pair each entry with its known result.
>  <Molecule>
CN1CCN(C2=Nc3cc(Cl)ccc3Nc3ccccc32)CC1

>  <Category label>
1.0

$$$$
>  <Molecule>
O=c1[nH]c(=O)n([C@H]2CCCO2)cc1F

>  <Category label>
0.0

$$$$
>  <Molecule>
CCC(C)(CN(C)C)OC(=O)c1ccccc1 (centres undefined)

>  <Category label>
0.0

$$$$
>  <Molecule>
CC(=O)[C@H]1CC[C@H]2[C@@H]3CC=C4C[C@@H](O)CC[C@]4(C)[C@H]3CC[C@]12C

>  <Category label>
0.0

$$$$
>  <Molecule>
N#Cc1c(N(CC(=O)O)CC(=O)O)sc(C(=O)O)c1CC(=O)O

>  <Category label>
0.0

$$$$

[ask] Any idea what this test logged for `CS(=O)(=O)CCNCc1ccc(-c2ccc3ncnc(Nc4ccc(OCc5cccc(F)c5)c(Cl)c4)c3c2)o1` ?
[reply] 1.0

[ask] Dear colleague, could you share the recorded outcome for CCC(C)(C)c1ccc(CC(C)CN2C[C@@H](C)O[C@@H](C)C2)cc1 (some centres undefined) when you have a moment?
[reply] 0.0

[ask] Any idea what this test logged for `O=C(O)c1ccc(-n2nc(-c3ccccc3O)nc2-c2ccccc2O)cc1` ?
[reply] 1.0

[ask] Please let me know the test result on file for `CN(C)CCN(Cc1ccc(Cl)cc1)c1ccccn1` .
[reply] 0.0

[ask] Name the outcome recorded for `NC(=O)n1c(O)c(C(=O)c2cccs2)c2cc(Cl)ccc21` in the assay.
[reply] 1.0

[ask] Given CC1(O)CCC(C(C)(C)O)CC1 (centres undefined) , state the outcome it received in this test.
[reply] 0.0
